system: A. baumannii ATCC 17978; assay: 50% growth inhibitory concentration (IC50) determination, antimicrobial susceptibility testing; type: cell-based; details: Acinetobacter baumannii; 50% growth inhibition, A. baumannii strain ATCC17978, Iso-Sensitest medium; read-out: IC50 ATCC17978
attribute.measured: IC50 (nM)
Answers are plain numbers, in nM.

Sample answers from the record:
CN1C(=O)[C@H](CCCCN)NC(=O)[C@H](CCCN)NCc2cccnc2Sc2c(F)ccc(-c3ccn(/C=C/C(=O)O)c(=O)c3)c2CNC(=O)[C@@H]1Cc1c[nH]c2ccccc12; 88
COc1ccc(-c2ccc(C(=O)O)cc2)c2c1Sc1ncccc1CN[C@@H](CCCN)C(=O)N[C@@H](CCCCN)C(=O)N(C)[C@@H](Cc1c[nH]c3ccccc13)C(=O)NC2; 71
CN1C(=O)[C@H](CCN)NC(=O)[C@H](CCCN)NCc2cccnc2Sc2c(Cl)ccc(-c3ccc(C(=O)O)cc3)c2CNC(=O)[C@@H]1Cc1c[nH]c2ccccc12; 20
CN1C(=O)[C@H](CCCN)NC(=O)[C@H](CCCN)NCc2cccnc2Sc2cccc(-c3ccc(C(=O)O)cc3)c2CNC(=O)[C@@H]1Cc1c[nH]c2ccccc12; 75

Attention now shifts to the item below.
Which IC50 is listed for CN1C(=O)[C@H](CCCCN)NC(=O)[C@H](CCN)NCc2cccnc2Sc2c(Cl)ccc(-c3ccc(C(=O)O)cc3)c2CNC(=O)[C@@H]1Cc1c[nH]c2ccccc12 ?
20

###

test: Plasma precipitation screening assay; set-up: species or system rat; details: Wistar (Hanbrl:Wist SPF), rat, 10 min
Sorting guide: entries reporting Plasma precipitation MEC beneath 900 µmol/L go in the 1 (yes) pile, the rest go in the 0 (no) pile.

Please review the entries below; each comes with its answer.
Cc1ccc(-c2ccc(C(=O)O)cc2)c2c1Sc1ncccc1CN[C@@H](CCCN)C(=O)N[C@@H](CCCCN)C(=O)N(C)[C@@H](Cc1c[nH]c3ccccc13)C(=O)NC2 [Example 10.00]; 1 (yes)
COc1ccc(-c2ccc(C(=O)O)cc2)c2c1Sc1ncccc1CN[C@@H](CCCN)C(=O)N[C@@H](CCCCN)C(=O)N(C)[C@@H](Cc1c[nH]c3ccccc13)C(=O)NC2 [Example 11.00]; 0 (no)

Given the entry CN1C(=O)[C@H](CCCCN)NC(=O)[C@H](CCCN)NCc2cccnc2Sc2c(Cl)ccc(-c3ccc(C(=O)O)c(S(C)(=O)=O)c3)c2CNC(=O)[C@@H]1Cc1c[nH]c2ccccc12 [Example 2.00] , would its reported Plasma precipitation MEC be below 900 µmol/L?
0 (no)

###

assay: Plasma precipitation screening assay; parameters: species or system rat; conditions: Wistar (Hanbrl:Wist SPF), rat, 10 min
Consider the following compounds; for each one, report its Plasma precipitation MEC.
One number for each entry, in µmol/L.

CN1C(=O)[C@H](CCCCN)NC(=O)[C@H](CCCN)NCc2cccnc2Sc2c(Cl)ccc(-c3ccn4nc(C(=O)O)cc4c3)c2CNC(=O)[C@@H]1Cc1c[nH]c2ccccc12; 820

Turning to the following compound.
Look up Plasma precipitation MEC: Cc1[nH]c2ccccc2c1C[C@H]1C(=O)NCc2c(cccc2-c2ccc(C(=O)O)cc2)Sc2ncccc2CN[C@@H](CCCN)C(=O)N[C@@H](CCCCN)C(=O)N1C
1090

###

Tested on: A. baumannii ATCC 17978
Assay: 50% growth inhibitory concentration (IC50) determination, antimicrobial susceptibility testing
Assay type: cell-based
Settings: Acinetobacter baumannii; 50% growth inhibition, A. baumannii strain ATCC17978, Iso-Sensitest medium; read-out: IC50 ATCC17978
Protocol: The in vitro antimicrobial activity of the compounds was alternatively determined according to the following procedure: The assay used a 10-points Iso-Sensitest broth medium to measure quantitatively the in vitro activity of the compounds against A. baumannii ATCC 17978. […] Bacterial cell growth was determined with the measurement of optical density at X=600 nm each 20 minutes over a time course of 16h. […]
For each entry below, report its pIC50 value.
One number for each entry, as −log10 of the molar value.

CN1C(=O)[C@H](CCCCN)NC(=O)[C@H](CCCN)NCc2nccnc2Sc2c(Cl)ccc(-c3ccc(C(=O)O)c(Cl)c3)c2CNC(=O)[C@@H]1Cc1c[nH]c2ccccc12 (racemic); 7.55
Cc1[nH]c2ccccc2c1C[C@H]1C(=O)NCc2c(cccc2-c2ccc(C(=O)O)cc2)Sc2ncccc2CN[C@@H](CCCN)C(=O)N[C@@H](CCCCN)C(=O)N1C; 7.64
CN1C(=O)[C@H](CCCCN)NC(=O)[C@H](CCCN)NCc2cccnc2Sc2c(F)ccc(-c3ccn(CC(=O)O)c(=O)c3)c2CNC(=O)[C@@H]1Cc1c[nH]c2ccccc12; 7.09
CN1C(=O)[C@H](CCCN)NC(=O)[C@H](CCCN)NCc2cccnc2Sc2c(F)ccc(-c3ccc(C(=O)O)nc3)c2CNC(=O)[C@@H]1Cc1c[nH]c2ccccc12; 7.05
CN1C(=O)[C@H](CCCN)NC(=O)[C@H](CCN)NCc2cccnc2Sc2c(Cl)ccc(-c3ccc(C(=O)O)cc3)c2CNC(=O)[C@@H]1Cc1c[nH]c2ccccc12; 7.70

Please report pIC50 for every entry that follows.
1. Cc1ccc(-c2ccn(CC(=O)O)c(=O)c2)c2c1Sc1ncccc1CN[C@@H](CCCN)C(=O)N[C@@H](CCCCN)C(=O)N(C)[C@@H](Cc1c[nH]c3ccccc13)C(=O)NC2
2. COc1cc(-c2ccc(Cl)c3c2CNC(=O)[C@H](Cc2c[nH]c4ccccc24)N(C)C(=O)[C@H](CCCCN)NC(=O)[C@H](CCCN)NCc2nccnc2S3)ccc1C(=O)O (racemic)
3. CN1C(=O)[C@H](CCCCN)NC(=O)[C@H](CCCN)NCc2cccnc2Sc2c(F)ccc(-c3ccc(C(=O)O)cc3)c2CNC(=O)[C@@H]1Cc1c[nH]c2ccccc12
4. CN1C(=O)[C@H](CCC(F)(F)CN)NC(=O)[C@H](CCCN)NCc2cccnc2Sc2c(Cl)ccc(-c3ccc(C(=O)O)cc3)c2CNC(=O)[C@@H]1Cc1c[nH]c2ccccc12
5. CN1C(=O)[C@H](CCCCN)NC(=O)[C@H](CCCN)NCc2cccnc2Sc2c(Cl)ccc(-c3ccn4nc(C(=O)O)cc4c3)c2CNC(=O)[C@@H]1Cc1c[nH]c2ccccc12

[7.11, 7.11, 7.70, 7.72, 7.70]

For the 7 molecules below, give their pIC50 values.
1. CN1C(=O)[C@H](CCCN)NC(=O)[C@H](CCCN)NCc2cccnc2Sc2c(F)ccc(-c3ccc(C(=O)O)cc3)c2CNC(=O)[C@@H]1Cc1c[nH]c2ccccc12
2. CN1C(=O)[C@H](CCCCN)NC(=O)[C@H](CCCN)NCc2nccnc2Sc2c(Cl)ccc(-c3ccc(C(=O)O)cc3)c2CNC(=O)[C@@H]1Cc1c[nH]c2ccccc12
3. CN1C(=O)[C@H](CCCCN)NC(=O)[C@H](CCCN)NCc2cccnc2Sc2cccc(-c3ccc(C(=O)O)cc3)c2CNC(=O)[C@@H]1Cc1c[nH]c2ccccc12
4. CN1C(=O)[C@H](CCCCN)NC(=O)[C@H](CCCN)NCc2cccnc2Sc2c(Cl)ccc(-c3ccc(C(=O)O)c(O)c3)c2CNC(=O)[C@@H]1Cc1c[nH]c2ccccc12
5. CN1C(=O)[C@H](CCCCN)NC(=O)[C@H](CCCN)NCc2cccnc2Sc2c(Cl)ccc(-c3ccc(C(=O)O)nc3)c2CNC(=O)[C@@H]1Cc1c[nH]c2ccccc12
6. CN1C(=O)[C@H](CCCCN)NC(=O)[C@H](CCCN)NCc2cccnc2Sc2c(Cl)ccc(-c3ccc(OCC(=O)O)cc3)c2CNC(=O)[C@@H]1Cc1c[nH]c2ccccc12 [Example 241 of WO2017/072062, reference compound]
7. Cc1[nH]c2ccccc2c1C[C@H]1C(=O)NCc2c(-c3ccc(C(=O)O)cc3)ccc(Cl)c2Sc2ncccc2CN[C@@H](CCCN)C(=O)N[C@@H](CCCCN)C(=O)N1C

1: 7.68; 2: 7.70; 3: 7.01; 4: 7.41; 5: 7.54; 6: 7.30; 7: 7.55

Would you be so kind as to report pIC50 for each listed record?
1. CN1C(=O)[C@H](CCCCN)NC(=O)[C@H](CCCN)NCc2cccnc2Sc2cncc(-c3ccc(C(=O)O)cc3)c2CNC(=O)[C@@H]1Cc1c[nH]c2ccccc12
2. Cc1[nH]c2ccccc2c1C[C@H]1C(=O)NCc2c(-c3ccn(CC(=O)O)c(=O)c3)ccc(Cl)c2Sc2ncccc2CN[C@@H](CCCN)C(=O)N[C@@H](CCCCN)C(=O)N1C

7.12
7.34

Which pIC50 is reported for this molecule? CN1C(=O)[C@H](CCCCN)NC(=O)[C@H](CCC(N)=O)NCc2cccnc2Sc2c(Cl)ccc(-c3ccc(C(=O)O)cc3)c2CNC(=O)[C@@H]1Cc1c[nH]c2ccccc12
7.17
